# Test system: Giardia lamblia
# experimentDescription: In vitro activity against Giardia lamblia ([3H]-thymidine incorporation)
# Type: cell-based, strain WB (ATCC #30957)
# protocolConditions: Giardia duodenalis, 42 hours, 37° C., read-out: IC50 ± S.D. In Vitro Antigiaridal Activity
observationType: pIC50
Scale explanation: pIC50 corresponds to minus log10 of a concentration expressed in moles per litre.

INPUT: Identify the measured pIC50 of "c1cc2[nH]c(CCCc3nc4cc(C5=NCCN5)ccc4[nH]3)nc2cc1C1=NCCN1" for Giardia lamblia.
OUTPUT: 4.31

INPUT: Now try "N=C(N)c1ccc2nc(CCc3nc4ccc(C(=N)N)cc4[nH]3)[nH]c2c1" .
OUTPUT: 6.48

INPUT: Now try "N=C(N)c1ccc2nc(CCCc3nc4ccc(C(=N)N)cc4[nH]3)[nH]c2c1" .
OUTPUT: 4.49

----------
# Tested on: Giardia lamblia
# experimentDescription: In vitro activity against Giardia lamblia ([3H]-thymidine incorporation)
# Assay type: cell-based, strain WB (ATCC #30957)
# protocolConditions: Giardia duodenalis, 42 hours, 37° C., read-out: IC50 ± S.D. In Vitro Antigiaridal Activity
Known IC50 of a selection of compounds
Entry rule: numbers only, all in µM.

INPUT: Form field: reported IC50 of "N=C(N)c1ccc2nc(CCCCCCCCc3nc4ccc(C(=N)N)cc4[nH]3)[nH]c2c1"
OUTPUT: 0.04

INPUT: Now try N=C(N)c1ccc2nc(Cc3nc4ccc(C(=N)N)cc4[nH]3)[nH]c2c1 [Compound 1, bis[5-amidino-2-benzimidazolyl]methane] .
OUTPUT: 307

INPUT: Now try "c1cc2[nH]c(CCCCc3nc4cc(C5=NCCN5)ccc4[nH]3)nc2cc1C1=NCCN1" .
OUTPUT: 14.5
